Reference source for all entries: patent US12650422B2

assay: Free fraction by equilibrium dialysis in serum; format: in vitro ADME; details: serum, DPDPE line: 1 uM
measurement.type: fraction unbound

1) O=C(O)C[C@H](O)C[C@H](O)/C=C/c1c(C2CC2)nc2ccccc2c1-c1ccc(F)cc1 [Pitavastatin] = 0.004
2) CC[C@H](C)C(=O)O[C@H]1C[C@H](O)C=C2C=C[C@H](C)[C@H](CC[C@@H](O)C[C@@H](O)CC(=O)O)[C@H]21 [Pravastatin] = 0.554
3) CN(Cc1cnc2nc(N)nc(N)c2n1)c1ccc(C(=O)N[C@@H](CCC(=O)O)C(=O)O)cc1 [Methotrexate] = 0.499
4) CCCCC(=O)N(Cc1ccc(-c2ccccc2-c2nnn[nH]2)cc1)[C@H](C(=O)O)C(C)C [Valsartan] = 0.004

###

test system: Rat Hepatocytes; experiment: Hepatic intracellular concentration (ICC) in rat hepatocytes, observed vs predicted; assay type: in vitro ADME; details: absence of protein (HBSS), adjusted with free fraction of Table 1; 1 μM
measurement.type: Predicted ICC (uM) HBSS (µM)

1. CC1(C)SSC(C)(C)[C@@H](NC(=O)[C@@H](N)Cc2ccc(O)cc2)C(=O)NCC(=O)N[C@@H](Cc2ccccc2)C(=O)N[C@H]1C(=O)O = 1.42
2. C[C@H]1O[C@@H](O[C@H]2[C@@H](O)C[C@H](O[C@H]3[C@@H](O)C[C@H](O[C@H]4CC[C@@]5(C)[C@H](CC[C@@H]6[C@@H]5C[C@@H](O)[C@]5(C)[C@@H](C7=CC(=O)OC7)CC[C@]65O)C4)O[C@@H]3C)O[C@@H]2C)C[C@H](O)[C@@H]1O = 1.59

###

tested on: sandwich-cultured rat hepatocytes; test: Intrinsic biliary clearance in sandwich-cultured rat hepatocytes
Reported Intrinsic Biliary Clearance, BSA values for the following molecules.
measurement.type: Intrinsic Biliary Clearance, BSA (mL/min/kg)

1) C[C@H]1O[C@@H](O[C@H]2[C@@H](O)C[C@H](O[C@H]3[C@@H](O)C[C@H](O[C@H]4CC[C@@]5(C)[C@H](CC[C@@H]6[C@@H]5C[C@@H](O)[C@]5(C)[C@@H](C7=CC(=O)OC7)CC[C@]65O)C4)O[C@@H]3C)O[C@@H]2C)C[C@H](O)[C@@H]1O [Digoxin] = 9.25
2) CN(Cc1cnc2nc(N)nc(N)c2n1)c1ccc(C(=O)N[C@@H](CCC(=O)O)C(=O)O)cc1 [Methotrexate] = 0.19
3) CC(C)c1nc(N(C)S(C)(=O)=O)nc(-c2ccc(F)cc2)c1/C=C/[C@@H](O)C[C@@H](O)CC(=O)O [Rosuvastatin] = 164

###

test system: sandwich-cultured rat hepatocytes; assay: Intrinsic biliary clearance in sandwich-cultured rat hepatocytes; details: rat
Could you label it 1 (yes) if measured Intrinsic Biliary Clearance, No Protein is 7 mL/min/kg or higher, and 0 (no) otherwise?

1. C[C@H]1O[C@@H](O[C@H]2[C@@H](O)C[C@H](O[C@H]3[C@@H](O)C[C@H](O[C@H]4CC[C@@]5(C)[C@H](CC[C@@H]6[C@@H]5C[C@@H](O)[C@]5(C)[C@@H](C7=CC(=O)OC7)CC[C@]65O)C4)O[C@@H]3C)O[C@@H]2C)C[C@H](O)[C@@H]1O = 1 (yes)
2. O=C(O)C[C@H](O)C[C@H](O)/C=C/c1c(C2CC2)nc2ccccc2c1-c1ccc(F)cc1 = 1 (yes)
3. CCCCC(=O)N(Cc1ccc(-c2ccccc2-c2nnn[nH]2)cc1)[C@H](C(=O)O)C(C)C = 0 (no)
4. CC(C)c1nc(N(C)S(C)(=O)=O)nc(-c2ccc(F)cc2)c1/C=C/[C@@H](O)C[C@@H](O)CC(=O)O = 1 (yes)
5. CN(Cc1cnc2nc(N)nc(N)c2n1)c1ccc(C(=O)N[C@@H](CCC(=O)O)C(=O)O)cc1 [Methotrexate] = 0 (no)
6. CC[C@H](C)C(=O)O[C@H]1C[C@H](O)C=C2C=C[C@H](C)[C@H](CC[C@@H](O)C[C@@H](O)CC(=O)O)[C@H]21 = 1 (yes)
